method: Cytotoxicity against human SH-SY5Y cells assessed as cell viability at 1.6 uM measured after 2 hrs by MTT assay relative to control
Assay type: cell-based
experimental_parameters: read-out: Activity
Task for the reader: assign each of the following compounds its reported viability at 2 h, 1.6 µM.
Please state the figure in %; there is no need to write the unit.

Which viability at 2 h, 1.6 µM is reported for this compound? COc1cc2c(cc1O)CCC(C)(CCNC(=O)C[C@H]1OC(O)[C@H](O)[C@@H](O)[C@@H]1O)O2 (stereo partly specified)
95.3

So what does the record say about viability at 2 h, 1.6 µM for COc1cc2c(cc1O)CCC(C)(C)O2 ?
94.1

Which measured viability at 2 h, 1.6 µM value corresponds to COc1cc2c(cc1O)CCC(C)(CCNC(C)=O)O2 (stereo unspecified) ?
100

Report viability at 2 h, 1.6 µM for COc1cc2c(cc1O)CCC(C)(CC(=O)N[C@@H](Cc1ccc(O)cc1)C(=O)O)O2 (stereo partly specified) please.
94.5

What does the record list as viability at 2 h, 1.6 µM for COc1cc2c(cc1O)CCC(C)(CC(=O)N1CCC[C@H]1C(=O)O)O2 (stereo partly specified) ?
99.2

Consider the compound shown here: Cc1c(C)c2c(c(C)c1O)CCC(C)(C(=O)O)O2 (stereo unspecified) What is its recorded viability at 2 h, 1.6 µM?
88.5

###

method: Cytotoxicity against human SH-SY5Y cells assessed as cell viability at 100 uM measured after 24 hrs by MTT assay relative to control
Format: cell-based
experimental_parameters: read-out: Activity
recorded_endpoint: viability at 24 h, 100 µM (%)
Report the value in % with no unit label.

Endpoint output: viability at 24 h, 100 µM of COc1cc2c(cc1O)CCC(C)(CC(=O)N[C@@H](Cc1ccccc1)C(=O)O)O2 (stereo partly specified) . Value?
59.1

Fill in: viability at 24 h, 100 µM of COc1cc2c(cc1O)CCC(C)(CCNC(C)=O)O2 (stereo unspecified) is ___
57.9

Which viability at 24 h, 100 µM value belongs to COc1cc2c(cc1O)CCC(C)(CCNC(=O)C[C@H]1OC(O)[C@H](O)[C@@H](O)[C@@H]1O)O2 (stereo partly specified) ?
56.6

Any idea what viability at 24 h, 100 µM was measured for COc1cc2c(cc1O)CCC(C)(CC(=O)N1CCC[C@H]1C(=O)O)O2 (stereo partly specified) ?
79.6

Reported viability at 24 h, 100 µM, compound COc1cc2c(cc1O)CCC(C)(CC(=O)N[C@@H](Cc1ccc(O)cc1)C(=O)O)O2 (stereo partly specified) : ____
67.5

Reported viability at 24 h, 100 µM, compound COc1cc2c(cc1O)CCC(C)(CC(=O)N[C@@H](CCC(N)=O)C(=O)O)O2 (stereo partly specified) : ____
58.2

Recorded viability at 24 h, 100 µM for COc1cc2c(cc1O)CCC(C)(CC(=O)NCCc1ccc(O)c(O)c1)O2 (stereo unspecified) , please?
58.4

Given the entry COc1cc2c(cc1O)CCC(C)(CC(=O)O)O2 (stereo unspecified) , report its measured viability at 24 h, 100 µM.
53.1

For COc1cc2c(cc1O)CCC(C)(CC(N)=O)O2 (stereo unspecified) , what is its reported viability at 24 h, 100 µM?
51.4

Consider the compound shown here: Cc1c(C)c2c(c(C)c1O)CCC(C)(C(=O)O)O2 (stereo unspecified) What is its recorded viability at 24 h, 100 µM?
68

viability at 24 h, 100 µM for COc1cc2c(cc1O)CCC(C)(CC(=O)N[C@@H](Cc1c[nH]c3ccccc13)C(=O)O)O2 (stereo partly specified) ?
65.9
